# targetDesc: HIV-1 protease (Human immunodeficiency virus type 1 group M subtype B)
# experimentalDetails: biochemical
# conditions: Table I; Dose 0.123 μM; read-out: Protease % Inhib

| molecule | readoutUnits | inhibition at 0.123 µM |
| --- | --- | --- |
| CC[C@H](Cc1ccccc1)c1cc(O)c(C(c2cccc(NS(=O)(=O)c3nccn3C)c2)C2CC2)c(=O)o1 (single isomer, unassigned) | % | 80.8 |
| CCCC1(CCc2ccccc2)CC(O)=C(C(c2cccc(NS(=O)(=O)c3ccc(F)cc3)c2)C2CC2)C(=O)O1 (centres unmarked) | % | 76.7 |
| CN(c1cccc(C(c2c(O)c3c(oc2=O)CCCCCC3)C2CC2)c1)S(=O)(=O)c1ccc(C#N)cc1 (centres unmarked) | % | 44 |
| CCCC1(CCC)CC(O)=C(C(CC)c2cccc(NS(=O)(=O)c3ccc(F)cc3)c2)C(=O)O1 (centres unmarked) | % | 82.2 |
| O=c1oc2c(c(O)c1C(c1cccc(NS(=O)(=O)c3ccccn3)c1)C1CC1)CCCCCC2 (centres unmarked) | % | 83.6 |
| CCCC1(CCc2ccccc2)CC(O)=C(C(c2cccc(NS(=O)(=O)c3ccc(C#N)cc3)c2)C2CC2)C(=O)O1 (centres unmarked) | % | 64.9 |
| CN(c1cccc(C(c2c(O)c3c(oc2=O)CCCCCC3)C2CC2)c1)S(=O)(=O)c1cn(C)cn1 (centres unmarked) | % | 60.9 |
| Cn1cnc(S(=O)(=O)Nc2cccc(C(C3=C(O)CC(CCC4CC4)(CCC4CC4)OC3=O)C(C)(C)C)c2)c1 (centres unmarked) | % | 67.2 |
| CC[C@H](Cc1ccccc1)c1cc(O)c(C(c2cccc(NS(=O)(=O)c3ccc(C#N)cc3)c2)C2CC2)c(=O)o1 (single isomer, unassigned) | % | 81.3 |
| CCC(CCOCCOC)c1cc(O)c(C(c2cccc(NS(=O)(=O)c3cn(C)cn3)c2)C2CC2)c(=O)o1 (centres unmarked) | % | 101 |
| CCCCCC1(CCCCC)CC(O)=C(C(CC)c2cccc(NS(=O)(=O)c3ccc(C#N)cc3)c2)C(=O)O1 (centres unmarked) | % | 27.9 |
| O=c1oc(C(CC2CC2)CC2CC2)cc(O)c1C(c1cccc(NS(=O)(=O)c2nc3ccccc3[nH]2)c1)C1CC1 (centres unmarked) | % | 70.2 |
| O=c1oc(C(CC2CC2)CC2CC2)cc(O)c1C(c1cccc(NS(=O)(=O)c2ccccn2)c1)C1CC1 (centres unmarked) | % | 85.7 |
| O=C(O)c1ccc(S(=O)(=O)Cc2cccc(C(c3c(O)c4c(oc3=O)CCCCCC4)C3CC3)c2)cc1 (centres unmarked) | % | 65.7 |
